Experimental Protocol: yeast display, Sf9 membrane polyspecificity reagent, FACS + sequencing; frameworks hold sequencing errors

Biopolymer Sequence	polyreactivity (PSR sort gate)
QVQLVESGGGLVQAGGSLRLSCAASGYTFKLYAMVWSRQAPGKERELVAAIRRGGTTNYADSVNGRFTISRDNSKNTVYFQMNSLKPADTAVYYCAADGWYPGFYYPYTEFDYWGQGTQVTVSS	high polyreactivity
QVQLVESGGGLVQAGGSLRLSCAASGLTIFVYAMGWYRQAPGKERELVAAISDSGGSTYYADSVKGRFTISRDNAKNTVYLQMNSLKPEDSAVYYCAGNSSTYPSDDSYDYWGQGTQVTVSS	low polyreactivity
QDQLVESGGGLVQAGVSLRLSCAASGSIIGSYAMGWYREAPAKERELVAAITRSGSRTYYADSVKGRFTISRDNAKNTVYLQINSLKPEDTAVYYCATGYPGGFDYWGLGTQVTVSS	high polyreactivity
QVQLVESGGGLVRAGGSLRLSCAASGSTFTNNAMGWYRQAPGKERELVAAITWIGGNTYYADTVKGRFTISRDNAKNTVYLQMNSLKPEDTAVYYCAADRRSRYHDVYGWLYYYWGQGTQVTVSS	low polyreactivity
QVQLVESGGGLVQAGGSLRLSCAASGRTFRAYAMGWYRQAPGKETELVASISRRGGSTYYADSVKGRFTISRDNAKNTVYLQMNSLKPEDSAVYYCAASDNYLQYDYWGQGTQVTVSS	high polyreactivity

====

Experimental Protocol: yeast display, Sf9 membrane polyspecificity reagent, FACS + sequencing; frameworks hold sequencing errors
Endpoint Label: polyreactivity (PSR sort gate)

Biopolymer Sequence	Endpoint Label	Recorded Result
QVRLVESGGGLVQAGGSLRLSCAASGRIFVGYGLGWYRQAHGKERELVAAITSSGGSTYYADSVKGRFTISRDNAKNTVYLQMNSLKPEDTAVYYCAAERGYHGGVSGLYDYWGQGTQVTVSS	polyreactivity (PSR sort gate)	low polyreactivity
QVQLVESGGGLVQAGGSLRLSCAASGRIFRRNAMGWSRQAPGNERELVAAISSSGGRTYYADSVKGRFTISRDNAKNTVYLEMNSLKPEDTAVYYCAARIRTVAHVDYDYWGQGTQVTVSS	polyreactivity (PSR sort gate)	high polyreactivity
QVQLVESGGGLVQAGGSLRLSCAASGSTFHNYAMGWYRQAPGKERELVAGISVRGGGTYYADSVKGRFTISRDNAKNTVYLQMNSLKPEDTAVYYCAPDFYWFWTYGTLWYGYEYWGQGTQVTVSS	polyreactivity (PSR sort gate)	high polyreactivity
QVQLVESGGGLVQAGGTLRLSCAASGSIFPDNTMGWYRQAPGKERELVAAIDGRGVTTYYADSVKGRFTISRDNAKNTVYLHMNSLKPEDTAVYYCAAQPWLRYYYWGQGTQVTVSS	polyreactivity (PSR sort gate)	low polyreactivity
QVQLVESGGGLVQAGGSLRLSCAASGFSFKLYAMGWYRQAPGKEREFVAAINRSGGSTYYADSVKGRFTISRDNAKNTVYLQMNSLKPEDTAVYYCAALAYTLYDYWGQGTQVTVSS	polyreactivity (PSR sort gate)	high polyreactivity

====

Experimental Protocol: yeast display, Sf9 membrane polyspecificity reagent, FACS + sequencing; frameworks hold sequencing errors

Biopolymer Sequence	polyreactivity (PSR sort gate)
QVQLVESGGGLVQAGGSLRLSCAASGRIKDNVMGWYRQAPGKERELVAAITRSAGRTYYADSVKGRFTISRDNAKNTVYLQMNSLKPEDTAVYYCAAQAERYGYEYWGQGTQVTVSS	low polyreactivity
QVQLVESGGGLVQAGGSLRLSSTASGFTFKLYAMGWERHATGKERELVAAISSYGGRTYYADSVKGRFTISRDNAKNTVYLQMKSLKPEDTAVYYCKAVRTVNDYHYDYWGQGTQVTVSS	high polyreactivity
QVQLVESGGGLVQAGGSLRLSCAASGSTFRYYAMGWYRQAPGKERELVAAISGSGGRTYYADSVKGRFTISRDNAKNTVYLQMNSLKPEYTAVYYCNTRGRSTDYDYWGQGTQVTVSS	high polyreactivity
QVQLVESGGGLVQAGGSLRLSCAASGSTFRYYAMGWYRQAPGKERELVAGISSSGGRTYYADSVKGRFTISRDNAKNTVYLQMNSLKPEDTAVYYCAAVRSSWSYYYWGQGTQVTVSS	high polyreactivity
QVQLVESGGGLVQAGGSLRISCAASGSTFEDNAMGWYRQAPGKERELVAAITSGGNTYYADSVKGRFTISRDNSKNTVYLQMNSLKPEDTAVYYCNAVPFYYDFDYWGQGTQVTVSS	low polyreactivity
